Exercise: for every item that follows, state its recorded pIC50.
# Measured target: Sa-ClpP (Staphylococcus aureus, UniProt Q2G036)
# Construct: made in house; host or cells: E. coli BL21(DE3)
# Sequence (Q2G036 1-195): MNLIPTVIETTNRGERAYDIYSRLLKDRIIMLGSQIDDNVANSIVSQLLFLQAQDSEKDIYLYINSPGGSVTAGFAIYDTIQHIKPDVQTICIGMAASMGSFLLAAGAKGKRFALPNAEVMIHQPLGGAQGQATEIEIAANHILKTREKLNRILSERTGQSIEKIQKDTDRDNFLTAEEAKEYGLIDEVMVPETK
# Method description: ADEP displacement fluorescence polarization assay (FP probe ADEP 2591)
# Type: binding
*1 amine or outer side, *2 acyl side, *3 side chain or, on linkers, in order; H or OH if unused. Where a SMILES comes first, the peptide text is derived from it. Bridges are numbered along the chain shown (N, C = ends). [ ]: non-standard residue; d: D form. The star is where a group is joined. ξ: configuration not given here. Phe(3,5-F2) = N[C@@H](Cc1cc(F)cc(F)c1)C(=O)O; NH(1-Me-indolin-5-yl) = CN1CCc2cc(N*)ccc21; Morpholine(3S-CO) = O=C(O)[C@@H]1COCCN1; NH(4-Cl-2-F-phenyl) = Fc1cc(Cl)ccc1N*; Pro(4R-Me) = C[C@H]1CN[C@H](C(=O)O)C1; NH(3,4-Me2-phenyl) = Cc1ccc(N*)cc1C; ξPro(4R-OH) = O=C(O)C1C[C@@H](O)CN1; ξPro(4R-Me) = C[C@H]1CNC(C(=O)O)C1; Hyp = O=C(O)[C@@H]1C[C@@H](O)CN1; NH(4-Et-phenyl) = CCc1ccc(N*)cc1; Heptenoyl(2E) = CCCC/C=C/C(=O)*; NH(4-Me-phenyl) = Cc1ccc(N*)cc1; ξNMeThr = CNC(C(=O)O)[C@@H](C)O; aThr = C[C@H](O)[C@H](N)C(=O)O; X13 = c1nc2cc(N*)ccc2[nH]1; Pip = O=C(O)[C@@H]1CCCCN1; NMeA = CN[C@@H](C)C(=O)O; X2 = CN1CCc2ccc(N*)cc21; X6 = Cc1cc(C)cc(N*)c1; CO = O=C([*:1])[*:2]
Worth noting: pIC50 values are minus log10 of concentrations stated in mol/L.

Return reported pIC50; argument: CCc1ccc(NC(=O)N[C@@H](Cc2cc(F)cc(F)c2)C(=O)N[C@@H]2C(=O)N3C[C@H](O)C[C@H]3C(=O)N3CCCC[C@H]3C(=O)N[C@@H](C)C(=O)N3C[C@H](C)C[C@H]3C(=O)O[C@H]2C)cc1 [Compound 211] ({NH(4-Et-phenyl)-CO}-[Phe(3,5-F2)][aThr][Hyp][Pip]A[Pro(4R-Me)]; ester 2-C) 5.17

Return reported pIC50; argument: C[C@@H]1C[C@H]2C(=O)O[C@@H](C)[C@H](NC(=O)[C@H](Cc3cc(F)cc(F)c3)NC(=O)Nc3ccc4c(c3)CCN4C)C(=O)N3CCC[C@H]3C(=O)N(C)C([C@@H](C)O)C(=O)N[C@@H](C)C(=O)N2C1 (stereo partly drawn) [Compound 311] ({NH(1-Me-indolin-5-yl)-CO}-[Phe(3,5-F2)][aThr]P[ξNMeThr]A[Pro(4R-Me)]; ester 2-C) 5.12

Return reported pIC50; argument: Cc1ccc(NC(=O)N[C@@H](Cc2cc(F)cc(F)c2)C(=O)N[C@@H]2C(=O)N3C[C@H](O)C[C@H]3C(=O)N3CCOC[C@H]3C(=O)N[C@@H](C)C(=O)N3C[C@H](C)C[C@H]3C(=O)O[C@H]2C)cc1C [Compound 215] ({NH(3,4-Me2-phenyl)-CO}-[Phe(3,5-F2)][aThr][Hyp][Morpholine(3S-CO)]A[Pro(4R-Me)]; ester 2-C) 5.17

Return reported pIC50; argument: Cc1cc(C)cc(NC(=O)N[C@@H](Cc2cc(F)cc(F)c2)C(=O)N[C@@H]2C(=O)N3CCC[C@H]3C(=O)N3CCCC[C@H]3C(=O)N[C@@H](C)C(=O)N3C[C@H](C)C[C@H]3C(=O)O[C@H]2C)c1 [Compound 304] ({X6-CO}-[Phe(3,5-F2)][aThr]P[Pip]A[Pro(4R-Me)]; ester 2-C) 5.19

Return reported pIC50; argument: C[C@@H]1C[C@H]2C(=O)O[C@@H](C)[C@H](NC(=O)[C@H](Cc3cc(F)cc(F)c3)NC(=O)Nc3ccc4c(c3)CCN4C)C(=O)N3CCC[C@H]3C(=O)N3CCCC[C@H]3C(=O)N[C@@H](C)C(=O)N2C1 [Compound 310] ({NH(1-Me-indolin-5-yl)-CO}-[Phe(3,5-F2)][aThr]P[Pip]A[Pro(4R-Me)]; ester 2-C) 5.16

Return reported pIC50; argument: CCCC/C=C/C(=O)N[C@@H](Cc1cc(F)cc(F)c1)C(=O)N[C@@H]1C(=O)N2C[C@H](O)C[C@H]2C(=O)N2CCCC[C@H]2C(=O)N[C@@H](C)C(=O)N2C[C@H](C)C[C@H]2C(=O)O[C@H]1C [Compound 301] ({Heptenoyl(2E)}-[Phe(3,5-F2)][aThr][Hyp][Pip]A[Pro(4R-Me)]; ester 2-C) 5.15

Return reported pIC50; argument: C[C@@H]1C[C@H]2C(=O)O[C@@H](C)[C@H](NC(=O)[C@H](Cc3cc(F)cc(F)c3)NC(=O)Nc3ccc4c(c3)N(C)CC4)C(=O)N3CCC[C@H]3C(=O)N3CCCC[C@H]3C(=O)N[C@@H](C)C(=O)N2C1 [Compound 321] ({X2-CO}-[Phe(3,5-F2)][aThr]P[Pip]A[Pro(4R-Me)]; ester 2-C) 5.08

Return reported pIC50; argument: Cc1ccc(NC(=O)N[C@@H](Cc2cc(F)cc(F)c2)C(=O)N[C@@H]2C(=O)N3C[C@H](O)CC3C(=O)N(C)[C@@H](C)C(=O)N[C@@H](C)C(=O)N3C[C@H](C)CC3C(=O)O[C@H]2C)cc1 (stereo partly drawn) [Compound 31] ({NH(4-Me-phenyl)-CO}-[Phe(3,5-F2)][aThr][ξPro(4R-OH)][NMeA]A[ξPro(4R-Me)]; ester 2-C) 5.24

Return reported pIC50; argument: C[C@@H]1C[C@H]2C(=O)OC[C@H](NC(=O)[C@H](Cc3ccccc3)NC(=O)Nc3ccc(OC(F)(F)F)cc3)C(=O)N3CCC[C@H]3C(=O)N3CCCC[C@H]3C(=O)N[C@@H](C)C(=O)N2C1 4.67

Return reported pIC50; argument: C[C@@H]1C[C@H]2C(=O)O[C@@H](C)[C@H](NC(=O)[C@H](Cc3cc(F)cc(F)c3)NC(=O)Nc3ccc4c(c3)CCN4C)C(=O)N3CCC[C@H]3C(=O)N3CCOC[C@H]3C(=O)N[C@@H](C)C(=O)N2C1 [Compound 312] ({NH(1-Me-indolin-5-yl)-CO}-[Phe(3,5-F2)][aThr]P[Morpholine(3S-CO)]A[Pro(4R-Me)]; ester 2-C) 5.20

Return reported pIC50; argument: C[C@@H]1C[C@H]2C(=O)O[C@@H](C)[C@H](NC(=O)[C@H](Cc3cc(F)cc(F)c3)NC(=O)Nc3ccc4[nH]cnc4c3)C(=O)N3CCC[C@H]3C(=O)N3CCCC[C@H]3C(=O)N[C@@H](C)C(=O)N2C1 [Compound 303] ({X13-CO}-[Phe(3,5-F2)][aThr]P[Pip]A[Pro(4R-Me)]; ester 2-C) 4.95

Return reported pIC50; argument: Cc1ccc(NC(=O)N[C@@H](Cc2cc(F)cc(F)c2)C(=O)N[C@H]2COC(=O)[C@@H]3C[C@@H](C)CN3C(=O)[C@H](C)NC(=O)[C@@H]3CCCCN3C(=O)[C@@H]3CCCN3C2=O)cc1C 5.28

Return reported pIC50; argument: C[C@@H]1C[C@H]2C(=O)O[C@@H](C)[C@H](NC(=O)[C@H](Cc3cc(F)cc(F)c3)NC(=O)Nc3ccc(Cl)cc3F)C(=O)N3CCC[C@H]3C(=O)N3CCCC[C@H]3C(=O)N[C@@H](C)C(=O)N2C1 [Compound 307] ({NH(4-Cl-2-F-phenyl)-CO}-[Phe(3,5-F2)][aThr]P[Pip]A[Pro(4R-Me)]; ester 2-C) 5.11

###

# Test system: Bacillus subtilis, ATCC 23857
# Method description: Minimal inhibitory concentration assay (microbroth dilution)
# Format: cell-based
# Experimental parameters: Bacillus subtilis, ATCC23857, read-out: Minimal Inhibitory Concentrations B. subtilis ATCC 23857
# Method: It is understood, that in various aspects, the MIC is determined by a microbroth dilution method. In a further aspect, the MIC is determined by a microbroth dilution method using Staphylococcus aureus, ATCC 29213. In a still further aspect, the MIC is determined by a microbroth dilution method using Staphylococcus aureus, NRS70. In a yet further aspect, the MIC is determined by a microbroth dilution method using Streptococcus pyogenes, ATCC 700294. […]
*1 amine or outer side, *2 acyl side, *3 side chain or, on linkers, in order; H or OH if unused. Where a SMILES comes first, the peptide text is derived from it. Bridges are numbered along the chain shown (N, C = ends). [ ]: non-standard residue; d: D form. The star is where a group is joined. Phe(3,5-F2) = N[C@@H](Cc1cc(F)cc(F)c1)C(=O)O; NMepT = CN[C@H](C(=O)O)[C@@H](C)OP(=O)(O)O; Pro(4S-Me) = C[C@@H]1CN[C@H](C(=O)O)C1; NH(4-Me-phenyl) = Cc1ccc(N*)cc1; aThr = C[C@H](O)[C@H](N)C(=O)O; CO = O=C([*:1])[*:2]
Observation type: MIC (µM)
Write it as a number; the unit µM goes unstated.

Return reported MIC; argument: Cc1ccc(NC(=O)N[C@@H](Cc2cc(F)cc(F)c2)C(=O)N[C@@H]2C(=O)N3CCC[C@H]3C(=O)N(C)[C@@H]([C@@H](C)OP(=O)(O)O)C(=O)N[C@@H](C)C(=O)N3C[C@@H](C)C[C@H]3C(=O)O[C@H]2C)cc1 [Compound 188] ({NH(4-Me-phenyl)-CO}-[Phe(3,5-F2)][aThr]P[NMepT]A[Pro(4S-Me)]; ester 2-C) 13
